# SYSTEM NAME: T1, recombinant human MASP1 active protease (amino acids 297-699, C-terminal His Tag) (human, UniProt P48740 297-699)
# T1 sequence: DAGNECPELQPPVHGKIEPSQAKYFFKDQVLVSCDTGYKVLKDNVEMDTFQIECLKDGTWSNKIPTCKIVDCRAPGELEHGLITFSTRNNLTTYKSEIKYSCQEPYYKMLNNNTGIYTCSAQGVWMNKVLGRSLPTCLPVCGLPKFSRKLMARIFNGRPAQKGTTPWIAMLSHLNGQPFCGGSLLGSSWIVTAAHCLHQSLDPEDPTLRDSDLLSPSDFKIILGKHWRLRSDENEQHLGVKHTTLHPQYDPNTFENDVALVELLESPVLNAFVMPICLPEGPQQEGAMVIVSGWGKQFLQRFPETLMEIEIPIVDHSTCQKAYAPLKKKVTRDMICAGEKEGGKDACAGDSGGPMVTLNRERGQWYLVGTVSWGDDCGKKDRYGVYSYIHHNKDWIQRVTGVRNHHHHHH
# RUN DESCRIPTION: cell-based or functional assay
Bridge positions count the residues as written; N and C are the ends. Square brackets hold non-standard residues; d marks the D form. Ends that are not written are not given here. Oic = O=C(O)[C@@H]1C[C@@H]2CCCC[C@@H]2N1; tBuAla = CC(C)(C)C[C@H](N)C(=O)O; Pen = CC(C)(S)[C@H](N)C(=O)O; NMeC = CN[C@@H](CS)C(=O)O; NMeA = CN[C@@H](C)C(=O)O; Nle = CCCC[C@H](N)C(=O)O; Orn = NCCC[C@H](N)C(=O)O
Labelling field: enter YES if recorded human MASP1 IC50 is less than 2 nM. Enter NO if it equals or exceeds that cut-off.

Some entries whose results are on file:
BINDER	GROUP
[Nle]ICSRS[tBuAla]PPI[NMeC]I-NH2 (disulfide 3-11; N-terminus assumed; SMILES CCCC[C@H](N)C(=O)N[C@H](C(=O)N[C@H]1CSSC[C@@H](C(=O)N[C@H](C(N)=O)[C@@H](C)CC)N(C)C(=O)[C@H]([C@@H](C)CC)NC(=O)[C@@H]2CCCN2C(=O)[C@@H]2CCCN2C(=O)[C@H](CC(C)(C)C)NC(=O)[C@H](CO)NC(=O)[C@H](CCCNC(=N)N)NC(=O)[C@H](CO)NC1=O)[C@@H](C)CC) [(Nle)-IC+SRS-((tBu)A)-PPI-((N-Me)C)+I-NH2]	YES
AICSRSLP[Oic]I[Pen]IPE-NH2 (disulfide 3-11; N-terminus assumed; SMILES CC[C@H](C)[C@H](NC(=O)[C@H](C)N)C(=O)N[C@H]1CSSC(C)(C)[C@@H](C(=O)N[C@H](C(=O)N2CCC[C@H]2C(=O)N[C@@H](CCC(=O)O)C(N)=O)[C@@H](C)CC)NC(=O)[C@H]([C@@H](C)CC)NC(=O)[C@@H]2C[C@@H]3CCCC[C@@H]3N2C(=O)[C@@H]2CCCN2C(=O)[C@H](CC(C)C)NC(=O)[C@H](CO)NC(=O)[C@H](CCCNC(=N)N)NC(=O)[C@H](CO)NC1=O) [AIC+SRSLP-(Oic)-I-(Pen)+IPE-NH2]	NO
[3‑Amino‑3‑methylbutyric acid]ICSRS[tBuAla]PPI[Pen]IPD-NH2 (disulfide 3-11) [(3-Amino-3-methylbutyric acid)-IC+SRS-((tBu)A)-PPI-(Pen)+IPD-NH2]	YES
AICSRSLP[Oic]I[Pen]IPD-OH (disulfide 3-11; also: TFA salt) [AIC+SRSLP-(Oic)-I-(Pen)+IPD-OH]	YES
[NMeA]ICSRS[tBuAla]PPI[Pen]IP-NH2 (disulfide 3-11; N-terminus assumed; SMILES CC[C@H](C)[C@H](NC(=O)[C@H](C)NC)C(=O)N[C@H]1CSSC(C)(C)[C@@H](C(=O)N[C@H](C(=O)N2CCC[C@H]2C(N)=O)[C@@H](C)CC)NC(=O)[C@H]([C@@H](C)CC)NC(=O)[C@@H]2CCCN2C(=O)[C@@H]2CCCN2C(=O)[C@H](CC(C)(C)C)NC(=O)[C@H](CO)NC(=O)[C@H](CCCNC(=N)N)NC(=O)[C@H](CO)NC1=O) [((N-Me)A)-IC+SRS-((tBu)A)-PPI-(Pen)+IP-NH2]	NO

Data request: Please determine if [Orn]ICSRS[tBuAla]PPI[Pen]IP-OH (disulfide 3-11; N-terminus assumed; SMILES CC[C@H](C)[C@H](NC(=O)[C@@H](N)CCCN)C(=O)N[C@H]1CSSC(C)(C)[C@@H](C(=O)N[C@H](C(=O)N2CCC[C@H]2C(=O)O)[C@@H](C)CC)NC(=O)[C@H]([C@@H](C)CC)NC(=O)[C@@H]2CCCN2C(=O)[C@@H]2CCCN2C(=O)[C@H](CC(C)(C)C)NC(=O)[C@H](CO)NC(=O)[C@H](CCCNC(=N)N)NC(=O)[C@H](CO)NC1=O) [(Orn)-IC+SRS-((tBu)A)-PPI-(Pen)+IP-OH] is below 2 nM in terms of human MASP1 IC50.
Data returned: NO
